# testProtocol: Clearance in rat
# Format: ADME, organism-based
# conditionLabel: in vivo
measuredQuantity: clearance (mL/min/kg)

itemSmiles | readingUnit | clearance
O=C(NO)C1(S(=O)(=O)c2ccc(OCCCc3nnnn3-c3ccc(OC(F)(F)F)cc3)cc2)CCOCC1 | mL/min/kg | 42
Cc1ccc(-c2nnn(CCCOc3ccc(S(=O)(=O)C4(C(=O)NO)CCOCC4)cc3)n2)nc1 | mL/min/kg | 46
O=C(NO)C1(S(=O)(=O)c2ccc(OCCCn3nnc(-c4ccc(OC(F)(F)F)cc4)n3)cc2)CCOCC1 | mL/min/kg | 12
CCN1CCC(C(=O)NO)(S(=O)(=O)c2ccc(OCCCc3nc(-c4ccc(OC(F)(F)F)cc4)no3)cc2)CC1 | mL/min/kg | 19

P = O=C(NO)C1(S(=O)(=O)c2ccc(OCCCc3nc(-c4ccc(OC(F)(F)F)cc4)no3)cc2)CCOCC1
Q = Cc1ccc(-c2nnnn2CCCOc2ccc(S(=O)(=O)C3(C(=O)NO)CCOCC3)cc2)nc1
In terms of reported clearance, does P or Q have the smaller number? Write the label of whichever entry you select.
P
(P: 14 mL/min/kg, Q: 63 mL/min/kg)
